The reported measurements were obtained from ChEMBL document CHEMBL4689842.

- Tested on: Fibroblast
- assay-remarks: Multiplex assay against human fibroblast
- Type: toxicity, cell-based
- condition-summary: 24 h, 10 µM, compound concentration 10 uM, replicate 2
The reader will find reported Population Apoptotic (%) values listed item by item below.
observed-property: Population Apoptotic (%)

compound	unit-info	measured-value
Cc1nc(-c2cn3c(n2)-c2ccc(-c4cnn(C(C)(C)C(N)=O)c4)cc2OCC3)n(C(C)C)n1 [TASELISIB]	%	42
Cc1[nH]c(/C=C2\C(=O)Nc3ccc(S(=O)(=O)N(C)c4cccc(Cl)c4)cc32)c(C)c1C(=O)N1CCN(C)CC1	%	100
CN1CCC[C@@H]1CCO[C@](C)(c1ccccc1)c1ccc(Cl)cc1.O=C(O)/C=C/C(=O)O [CLEMASTINE FUMARATE]	%	76
Cc1csc2c(N[C@@H](C)CN3CCN(S(=O)(=O)c4ccc(Cl)c(Cl)c4)CC3)ncnc12	%	80
COc1cc2nccc(Oc3ccc(NC(=O)Nc4cc(C)on4)c(Cl)c3)c2cc1OC.O	%	92
COc1cc(-n2cnc3cc(-c4ccc(Cl)cc4)sc3c2=O)ccc1OCCN1CCCC1	%	47
CN(C)C(=O)/C(C#N)=C/c1ccc(-c2nc3cnc4[nH]ccc4c3n2C2CCCCC2)o1	%	44
CC[C@H](C)C(=O)O[C@H]1C[C@@H](C)C=C2C=C[C@H](C)[C@H](CC[C@@H]3C[C@@H](O)CC(=O)O3)[C@H]21 [LOVASTATIN]	%	28

###

- Tested on: HEK-293T
- assay-remarks: Incucyte cell viability with HEK293T; note: filed as whole numbers so only -1 and 0 and 1 occur
- Assay type: toxicity, cell-based
- condition-summary: human, 18 h, 10 µM, compound concentration 10 uM, replicate number 1, timepoint 18 hours
observed-property: Growth Rate

compound	study-target	measured-value
O=c1nc(-c2ccccn2)sc2ccccc12 [BTZO-1]	HEK-293T	1
C[C@@]1(Cc2ccc(C#N)cc2)C(=O)N(c2cc(Cl)cc(Cl)c2)c2ncc(C(=O)NC3(c4nc(C5CCC5)no4)CC3)n21 [BI 9446]	HEK-293T	0
COc1ccc(CNC(=O)c2cc(-c3cncc(Cl)c3)cnc2-c2ccccn2)nc1OC [MK-1064]	HEK-293T	0
CS(=O)(=O)c1cccc(NC(=O)N(Cc2ccc(C(=O)Nc3nn[nH]n3)cc2)c2ccc(C3CCCCC3)cc2)c1	HEK-293T	1
Cc1sc2c(c1C)C(c1ccc(Cl)cc1)=N[C@@H](CC(=O)OC(C)(C)C)c1nnc(C)n1-2	HEK-293T	1
CCC(=O)N1CCOc2c(cc(-c3ccc(OC)c(OC)c3)cc2OC[C@H]2CCCN(C)C2)C1	HEK-293T	0
O=C(NCCN1CCOCC1)c1ccc2c(c1)C(=O)c1ccc(Nc3ccc(F)c(NC(=O)c4ccccc4)c3)cc1CC2 [FS-694]	HEK-293T	0

###

- System: HEK-293T
- assay-remarks: Incucyte cell viability with HEK293T; note: filed as whole numbers so only -1 and 0 and 1 occur
- Format: toxicity, cell-based
- condition-summary: human, 12 h, 10 µM, compound concentration 10 uM, replicate number 1, timepoint 12 hours
The reader will find reported Growth Rate values listed item by item below.

molecule	Growth Rate
COc1cccc([C@@H](C)NCCCc2ccccc2Cl)c1.Cl [TECALCET HYDROCHLORIDE]	0
CN(C)[C@@H]1CCN(c2cc(-c3ccccc3)nc3ccnn23)C1 [(R)-ZINC-3573]	1
Cc1nc(-c2ccc(-c3ccc(C(=O)N4CCc5cc6c(cc54)C4(CCN(C)CC4)CO6)cc3)c(C)c2)no1	0
Clc1cccc(-c2nnnn2Cc2cccnc2)c1Cl	1
CN1CCN(c2ccc(OC(F)(F)F)c(Nc3ncc4c(n3)-c3c(c(C(N)=O)nn3CCO)CC4)c2)CC1	0
CN([C@@H]1CCc2c(CC(=O)O)c3cc(S(C)(=O)=O)ccc3n2C1)S(=O)(=O)c1ccc(F)cc1 [CRTH2-negative-control]	0
CN(C)c1ncnc(-c2ccc3nc(Nc4cc(CN5CCN(C(=O)CC(F)(F)F)CC5)ccn4)[nH]c3c2)c1Cl	0
CC(=O)OCC(=O)[C@@]1(O)CC[C@H]2[C@@H]3CCC4=CC(=O)CC[C@]4(C)[C@@]3(F)[C@@H](O)C[C@@]21C [FLUDROCORTISONE ACETATE]	1

###

The reader will find reported Population Membrane Permeable-Phenotype (%) values listed item by item below.
- System: HEK-293T
- assay-remarks: Multiplex assay against HEK293T
- Format: toxicity, cell-based
- condition-summary: human, 48 h, 1 µM, compound concentration 1 uM, replicate 1
observed-property: Population Membrane Permeable-Phenotype (%)

compound	measured-value
CC(C)NCC(O)COc1ccc(CCOCC2CC2)cc1.Cl (centres undefined) [BETAXOLOL HYDROCHLORIDE]	1
CN1CCN(c2ccc(OC(F)(F)F)c(Nc3ncc4c(n3)-c3c(c(C(N)=O)nn3CCO)CC4)c2)CC1 [ONVANSERTIB]	0
CN(C)CC#Cc1ccc(OCCCc2sc(N3CCc4cccc(C(=O)Nc5nc6ccccc6s5)c4C3)nc2C(=O)O)c(F)c1 [A-1155463]	9
Nc1c(C(=O)NCc2ccc(C(=O)NCCCC3CCCCC3)cc2)cnn1-c1ccccc1 [SR-318]	0

###

- Tested on: U2OS
- assay-remarks: Multiplex assay against U2OS
- Assay type: toxicity, cell-based
- condition-summary: human, 24 h, 1 µM, compound concentration 1 uM, replicate 2
observed-property: Population Membrane Permeable-Phenotype (%)

molecule	unit-info	measured-value
Cc1csc2c(N[C@@H](C)CN3CCN(S(=O)(=O)c4ccc(Cl)c(Cl)c4)CC3)ncnc12	%	11
C=CC(=O)Nc1cccc(C(=O)Nc2ccc(Nc3cc(-c4[nH]c(SC)nc4C)ccn3)cc2)c1	%	2
O=C1NCN(c2ccccc2)C12CCN(CCCOc1ccc(F)cc1)CC2 [SPIRAMIDE]	%	2
CC(C)(O)CNc1ncc(-c2ccnc(Nc3ccnc(Cl)c3)n2)c(CC2CC2)n1	%	10
C[C@@]1(C(=O)Nc2ccc(F)nc2)CCCN1c1nc(Nc2cc(C3CC3)n[nH]2)c2cccn2n1 [BMS-754807]	%	41
NC(=O)Nc1cc(-c2cccc(F)c2)sc1C(=O)N[C@H]1CCCNC1 [AZD-7762]	%	7
CC[C@H](C)C(=O)O[C@H]1C[C@@H](C)C=C2C=C[C@H](C)[C@H](CC[C@@H]3C[C@@H](O)CC(=O)O3)[C@H]21 [LOVASTATIN]	%	0
C[C@@H](NCCCc1cccc(C(F)(F)F)c1)c1cccc2ccccc12.Cl [CINACALCET HYDROCHLORIDE]	%	5

###

- System: Fibroblast
- assay-remarks: Multiplex assay against human fibroblast
- Assay type: toxicity, cell-based
- condition-summary: 24 h, 1 µM, compound concentration 1 uM, replicate 2
observed-property: Population Healthy Nuclei (%)

compound	observed-property	unit-info	measured-value
Cl.N#Cc1ccc2[nH]cc(CCCCN3CCN(c4ccc5oc(C(N)=O)cc5c4)CC3)c2c1 [VILAZODONE HYDROCHLORIDE]	Population Healthy Nuclei (%)	%	78
CNc1nc(NCc2ccc(NS(C)(=O)=O)cc2Cl)cc(-c2ccccn2)n1	Population Healthy Nuclei (%)	%	85
Cc1c(-c2ccc(O)cc2)n(Cc2ccc(OCCN3CCCCCC3)cc2)c2ccc(O)cc12 [BAZEDOXIFENE]	Population Healthy Nuclei (%)	%	75
OC1(c2ccc(Cl)cc2)CCN(Cc2c[nH]c3ccccc23)CC1	Population Healthy Nuclei (%)	%	88
Cc1[nH]c(/C=C2\C(=O)Nc3ccc(S(=O)(=O)N(C)c4cccc(Cl)c4)cc32)c(C)c1C(=O)N1CCN(C)CC1	Population Healthy Nuclei (%)	%	72
Cc1csc2c(N[C@@H](C)CN3CCN(S(=O)(=O)c4ccc(Cl)c(Cl)c4)CC3)ncnc12	Population Healthy Nuclei (%)	%	73
CN(C)CC#Cc1ccc(OCCCc2sc(N3CCc4cccc(C(=O)Nc5nc6ccccc6s5)c4C3)nc2C(=O)O)c(F)c1 [A-1155463]	Population Healthy Nuclei (%)	%	54
CC[C@H](C)C(=O)O[C@H]1C[C@@H](C)C=C2C=C[C@H](C)[C@H](CC[C@@H]3C[C@@H](O)CC(=O)O3)[C@H]21 [LOVASTATIN]	Population Healthy Nuclei (%)	%	70
Cc1cc(C)cc(-c2cnc3cc(Cl)c(-c4cccc(O)c4)cc3c2OCCCN)c1	Population Healthy Nuclei (%)	%	75
COc1ncc(-c2ccc3nccc(-c4ccnnc4)c3c2)cc1NS(=O)(=O)c1ccc(F)cc1F [OMIPALISIB]	Population Healthy Nuclei (%)	%	40
CN1CCCC(n2nc(Cc3ccc(Cl)cc3)c3ccccc3c2=O)CC1.Cl (stereo not drawn) [AZELASTINE HYDROCHLORIDE]	Population Healthy Nuclei (%)	%	76
CN(C)C(=O)/C(C#N)=C/c1ccc(-c2nc3cnc4[nH]ccc4c3n2C2CCCCC2)o1	Population Healthy Nuclei (%)	%	84
C[C@@H](NCCCc1cccc(C(F)(F)F)c1)c1cccc2ccccc12.Cl [CINACALCET HYDROCHLORIDE]	Population Healthy Nuclei (%)	%	69
c1cn2cc(-c3ccc4cn[nH]c4c3)nc(Nc3ccc(N4CCOCC4)cc3)c2n1 [ENTOSPLETINIB]	Population Healthy Nuclei (%)	%	74
CN(C)C(=O)N[C@H]1CC[C@H](CCN2CCN(c3cccc(Cl)c3Cl)CC2)CC1.Cl [CARIPRAZINE HYDROCHLORIDE]	Population Healthy Nuclei (%)	%	84
CN1CCN(CCOc2cc(OC3CCOCC3)c3c(Nc4c(Cl)ccc5c4OCO5)ncnc3c2)CC1 [SARACATINIB]	Population Healthy Nuclei (%)	%	67
CC(C)NCC(O)COc1ccc(CCOCC2CC2)cc1.Cl (stereo not drawn) [BETAXOLOL HYDROCHLORIDE]	Population Healthy Nuclei (%)	%	85
COc1cccc([C@@H](C)NCCCc2ccccc2Cl)c1.Cl [TECALCET HYDROCHLORIDE]	Population Healthy Nuclei (%)	%	80
CN1CCN(c2ccc(OC(F)(F)F)c(Nc3ncc4c(n3)-c3c(c(C(N)=O)nn3CCO)CC4)c2)CC1 [ONVANSERTIB]	Population Healthy Nuclei (%)	%	65
Cc1nc(-c2cn3c(n2)-c2ccc(-c4cnn(C(C)(C)C(N)=O)c4)cc2OCC3)n(C(C)C)n1 [TASELISIB]	Population Healthy Nuclei (%)	%	30
Cc1nc(Nc2n[nH]c3c2CN(C(=O)N[C@H](CN(C)C)c2ccccc2)C3(C)C)c2sccc2n1 [PF-03758309]	Population Healthy Nuclei (%)	%	33
Cn1cc(-c2[nH]c3cc(NC(=O)[C@H](N)C4CCCCC4)cc4c3c2C=NNC4=O)cn1	Population Healthy Nuclei (%)	%	70
C=CC(=O)Nc1ccc2ncnc(Nc3ccc(OCc4cccc(F)c4)c(Cl)c3)c2c1.Cc1ccc(S(=O)(=O)O)cc1	Population Healthy Nuclei (%)	%	84
Cc1nc(-c2ccc(-c3ccc(C(=O)N4CCc5cc6c(cc54)C4(CCN(C)CC4)CO6)cc3)c(C)c2)no1 [SB-224289]	Population Healthy Nuclei (%)	%	77
CN1CCC[C@@H]1CCO[C@](C)(c1ccccc1)c1ccc(Cl)cc1.O=C(O)/C=C/C(=O)O [CLEMASTINE FUMARATE]	Population Healthy Nuclei (%)	%	70
C=CC(=O)Nc1cccc(C(=O)Nc2ccc(Nc3cc(-c4[nH]c(SC)nc4C)ccn3)cc2)c1	Population Healthy Nuclei (%)	%	87
C=CC(=O)Nc1cc2c(Nc3ccc(F)c(Cl)c3)ncnc2cc1OCCCN1CCOCC1.Cl.Cl [CANERTINIB DIHYDROCHLORIDE]	Population Healthy Nuclei (%)	%	26
O=C1NCN(c2ccccc2)C12CCN(CCCOc1ccc(F)cc1)CC2 [SPIRAMIDE]	Population Healthy Nuclei (%)	%	89
COc1cc(-n2cnc3cc(-c4ccc(Cl)cc4)sc3c2=O)ccc1OCCN1CCCC1	Population Healthy Nuclei (%)	%	71
CCN(CC)CCCCNc1ncc2cc(-c3cc(OC)cc(OC)c3)c(NC(=O)NC(C)(C)C)nc2n1 [PD-173074]	Population Healthy Nuclei (%)	%	12
NC(=O)Nc1cc(-c2cccc(F)c2)sc1C(=O)N[C@H]1CCCNC1 [AZD-7762]	Population Healthy Nuclei (%)	%	60
CC(C)(O)CNc1ncc(-c2ccnc(Nc3ccnc(Cl)c3)n2)c(CC2CC2)n1	Population Healthy Nuclei (%)	%	74
C[C@@]1(C(=O)Nc2ccc(F)nc2)CCCN1c1nc(Nc2cc(C3CC3)n[nH]2)c2cccn2n1 [BMS-754807]	Population Healthy Nuclei (%)	%	19
